Molecular target: T1, biotinylated human VWF cysteine knot (CK) domain construct (human, UniProt P04275 2724-2813, biotinylated in vitro (BirA) on the biotinylation tag; one N-glycan)
T1 construct: Expressed in HEK293 EBNA cells; disulfide-linked homodimer; also called human VWF CK; human VWF CK domain; not shown: in vitro biotinylation tag, HRV-3C site and 3 VWF residues before the CK domain
Assay: SPR, scFv captured via anti-SV5, CK domain injected, pH 5.5, apparent Kd;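 also: scFvs from crude yeast supernatants captured on chip-bound anti-SV5 antibody, Kd computed as koff divided by kon, dimeric CK construct likely makes affinity appear higher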
Recorded measurements of Kd, one per entry
Note: unit nM is implicit; provide only the numeric part.

Here are 2 binders together with their reported answers.
| binder | measurement-units | result-number |
| --- | --- | --- |
| Lib1_P1_A9_scFv (scFv, VH-linker-VL; not shown: C-terminal 3xFLAG and SV5 tags) scFv: QVQLVQSGAEVKKPGASVKVSCKVSGDTLSSYGIHWVRQAPGKGLEWMGGSIPSFGTAIYAQKFQGRVTMTEDTSTDTAYMELSSLKSEDTAVYYCTSEGPWLPFFSFDYWGQGTLVTVSSSGGSTITSYNVYYTKLSSSGTDIQMTQSPSSVSASVGDRVTITCRASQGISRNLAWYQQKPGKAPKLLIYKASSLASGVPSRFSGSGSGTDFTLTISSLQPEDFANYYCQQSFSTPVTFGGGTKVEIK | nM | 0.018 |
| Lib1_P1_A2_scFv (scFv, VH-linker-VL; not shown: C-terminal 3xFLAG and SV5 tags) scFv: QVQLVQSGAEVKKPGASVKVSCKVSEGTLSRHYINWVRQAPGKGLEWMGGINAKSGATIYAQKFQGRVTMTEDTSTDTAYMELSSLKSEDTAVYYCAKDTGDDILTDYSDAFDIWGQGTMVTVSSSGGSTITSYNVYYTKLSSSGTDIQMTQSPSSVSASVGDRVTITCRASQNIGTSLAWYQQKPGKAPKLLIYGASNLESGVPSRFSGSGSGTDFTLTISSLQPEDFANYYCLQYNDWPPLYSFGGGTKVEIK | nM | 0.076 |

Switching to the query record.
Would you kindly share the measured Kd for 96_Lib4_scFv (scFv, VH-linker-VL; not shown: C-terminal 3xFLAG and SV5 tags) scFv: QVQLQESGPGLVKPSQTLSLTCTVSGESFSTSYWSWIRQPPGKGLEWIGYITHSGYTDYNPSLKSRVTMSVDTSKNQFSLKVNSVTAADTAVYYCARGGRFPFWYFDLWGRGSLVTVSSSGGSTITSYNVYYTKLSSSGTEIVMTQSPATLSLSPGERATLSCRASRSIGSNLAWYQQKPGQAPRLLIYGATTRATGIPARFSGSGSGTDFTLTISSLEPEDFAVYYCQQYKNDATFGGGTKVEIK ?
1.4

Data credit: patent US20250154283A1
